Tested on: HL-60(TB) leukemia
Experiment: NCI tumour cell line growth inhibition, 48 h
readout: TGI

The following compounds have reported results that may help.
compound: NC(CC(=O)O)(Cc1ccccc1)C(=O)O (stereo unspecified)
readout: TGI
recorded.result: > 100 µM

compound: C=C1C(=O)O[C@H]2[C@H]1CC/C(COC(=O)NCc1cc(OC)cc(OC)c1)=C\CC[C@@]1(C)O[C@@H]21
readout: TGI
recorded.result: 5.03 µM

compound: O=C(NNC(=O)c1nsc2ccccc12)c1ccc(Cl)cc1
readout: TGI
recorded.result: 49.8 µM

compound: O=C(O)c1ccccc1Nc1ccc2nnc(-c3ccncc3)n2n1
readout: TGI
recorded.result: > 100 µM

Q: Which TGI is reported for this compound? COc1cc2c(cc1OC)C(=O)/C(=C/c1ccc([N+](=O)[O-])cc1)CC2
A: > 10 µM

Q: // same read-out, input: OC(CC(O)(C(F)(F)F)C(F)(F)F)C(O)c1ccco1 (stereo unspecified)
A: > 10 µM

Q: // same read-out, input: CCCCCC/C=C1\CCC(CN(C)C)C1=O (stereo unspecified)
A: 4.8 µM
